The origin of these recorded values is ChEMBL document CHEMBL4513216.

tested on: Plasmodium falciparum; test: Screen against P. falciparum Asexual Blood Stage (ABS), at 5uM; assay type: functional, Dd2; settings: tested at 5 uM
About 2,100 (3.2%) of roughly 65,000 compounds showed an effect of 50% or more. The median lay at about -52%. Shown is part of a subset that was picked to be rich in strong results.
Collected INHIBITION values appear next to each entry.
readout.type: INHIBITION (%)

>  <compound>
CC(NCc1ccc(OCC(N)=O)cc1)c1ccc2c(c1)CCCC2 (stereo unspecified)

>  <reading>
73.4

$$$$
>  <compound>
CC1(C)CC2(CCO1)NC(=O)c1cc(Br)ccc1-n1nnnc12 (stereo unspecified)

>  <reading>
-59.6

$$$$
>  <compound>
Cn1ncc2c(N3CCCN4CCC[C@H]4C3)nc(C(C)(C)C)nc21

>  <reading>
-68.8

$$$$
>  <compound>
CC(C)n1[nH]c(=O)c2c1NC(=O)CSC2c1ccc(OCC(N)=O)cc1 (stereo unspecified)

>  <reading>
-43.5

$$$$
>  <compound>
Cc1cc(CC(=O)N2CCN(CC(C)C)[C@@H]3CS(=O)(=O)C[C@@H]32)ccc1F

>  <reading>
-48.2

$$$$
>  <compound>
CNC(=O)C1CCC2(CCNCC2)C1 (stereo unspecified)

>  <reading>
-92

$$$$
>  <compound>
c1cnc(N2CCC3(CC2)CN(CC2CC2)c2ccccc23)nc1

>  <reading>
86.3

$$$$
>  <compound>
CCN1CCC2(CC1)CN(CCO)c1ccccc12

>  <reading>
-30.2

$$$$
>  <compound>
CN1CCN(c2ncccn2)CC12CCC(=O)N(CC1CC1)CC2 (stereo unspecified)

>  <reading>
-74.4

$$$$
>  <compound>
O=C1O[C@@H]2CN(Cc3ccsc3)C[C@@H]2N1Cc1ccccn1

>  <reading>
-67.9

$$$$
>  <compound>
CC(C)n1[nH]c(=O)c2c1NC(=O)CSC2c1cccc(OCC(N)=O)c1 (stereo unspecified)

>  <reading>
-96.5

$$$$

###

test system: Plasmodium falciparum; test: Screen against P. falciparum Asexual Blood Stage (ABS), at 5uM; assay type: functional, Dd2; details: tested at 5 uM
Out of some 65,000 compounds screened, about 2,100 (3.2%) showed an effect of 50% or more. The median lay at about -52%. This is one part of a sample in which strong results are shown more often than they occur.
readout.type: INHIBITION

>  <molecule>
Cc1ccc(-n2nnc(CC(=O)N3CCN(C(C)C)CC3)c2C)cc1

>  <readout.type>
INHIBITION

>  <reading>
-42.3%

$$$$
>  <molecule>
CN1CC[C@H]2[C@H](C[C@@H](CN3CCCC3)N2c2nccs2)C1

>  <readout.type>
INHIBITION

>  <reading>
73.7%

$$$$
>  <molecule>
O=C1NC[C@H]2CN(Cc3ccnc4ccccc34)CCN12

>  <readout.type>
INHIBITION

>  <reading>
-11.8%

$$$$
>  <molecule>
COc1ccccc1C1(NCc2c(C)nc3c(C)cccn23)CCCC1

>  <readout.type>
INHIBITION

>  <reading>
89.2%

$$$$
>  <molecule>
O=C(N1CCOCC1)N1CCC2(CCNC2)C1 (configuration not stated)

>  <readout.type>
INHIBITION

>  <reading>
-12.3%

$$$$
>  <molecule>
CCN1C(=O)C2(CCCCC2)NC12CCSCC2

>  <readout.type>
INHIBITION

>  <reading>
-40%

$$$$
>  <molecule>
Cc1ccc(Cl)cc1-n1nnnc1C1(N2CCCC2)CCCCC1

>  <readout.type>
INHIBITION

>  <reading>
-125%

$$$$
>  <molecule>
O=C(c1ncccn1)N1C[C@@H]2CN(CC3CC3)CCO[C@@H]2C1

>  <readout.type>
INHIBITION

>  <reading>
-14.4%

$$$$
>  <molecule>
CN1[C@H](Cn2cccn2)C[C@@H]2CN(Cc3cccs3)CC[C@@H]21

>  <readout.type>
INHIBITION

>  <reading>
75.8%

$$$$
>  <molecule>
O[C@@H]1C[C@H]2CN(Cc3ccsc3)[C@@H](Cc3ccccc3)CN2C1

>  <readout.type>
INHIBITION

>  <reading>
71.6%

$$$$
>  <molecule>
CN1C(Cn2cccn2)C[C@@H]2CN(Cc3ccccn3)CC[C@@H]21 (some centres not stated)

>  <readout.type>
INHIBITION

>  <reading>
41.6%

$$$$
>  <molecule>
c1cnn(C[C@@H]2C[C@@H]3CN(CC4CC4)CC[C@@H]3N2c2nccs2)c1

>  <readout.type>
INHIBITION

>  <reading>
89.9%

$$$$
>  <molecule>
CCN1C[C@H]2N(c3ncccn3)CCC[C@@]2(C(=O)NCC2CC2)C1

>  <readout.type>
INHIBITION

>  <reading>
-24.6%

$$$$
>  <molecule>
C[C@H]1CN2C[C@H](O)CC2CN1Cc1ccncc1 (some centres not stated)

>  <readout.type>
INHIBITION

>  <reading>
-85.4%

$$$$
>  <molecule>
Cc1nccc([C@@H]2C[C@@H]3CCN(Cc4cccs4)C[C@H]3O2)n1

>  <readout.type>
INHIBITION

>  <reading>
-92.1%

$$$$
>  <molecule>
CCN1CCCC(CNC(=O)C2(c3cc(C)cc(C)c3)CCC2)C1 (configuration not stated)

>  <readout.type>
INHIBITION

>  <reading>
75.8%

$$$$
>  <molecule>
C[C@@H]1CN2C[C@H](O)CC2CN1Cc1ccncc1 (some centres not stated)

>  <readout.type>
INHIBITION

>  <reading>
-64.4%

$$$$
>  <molecule>
NC(=O)N1C[C@H]2CN(Cc3nccs3)C[C@H]2C1

>  <readout.type>
INHIBITION

>  <reading>
-12%

$$$$
>  <molecule>
c1cncc(C(Cn2cnnc2)N2CCOCC2)c1 (configuration not stated)

>  <readout.type>
INHIBITION

>  <reading>
-88.3%

$$$$
>  <molecule>
CSc1nccc(N2CCC3(CCCN(CC4CC4)C3)C2)n1 (configuration not stated)

>  <readout.type>
INHIBITION

>  <reading>
-48.7%

$$$$
>  <molecule>
CC(C)N(C)Cc1cncc2c1CCN(Cc1cccs1)C2

>  <readout.type>
INHIBITION

>  <reading>
1.43%

$$$$
>  <molecule>
C[C@@H]1C[C@@H]2CCN(Cc3nccs3)C[C@H]2O1

>  <readout.type>
INHIBITION

>  <reading>
-26.9%

$$$$
